biological target: T1, Soluble heterodimeric CD3 protein (hCD3-epsilon/hCD3-delta) with either a human Fc tag (hFcΔAdp/hFc) or a … (human, UniProt P07766 23-126; P04234 22-105); assay: SPR Biacore 25C antibody-capture
T1 construct: also called hCD3ε/δ; not shown: Fc tag: human (hFcΔAdp/hFc)
T1 sequence (P07766 23-126 limits assumed, stated change not applied, chain 1 of 2): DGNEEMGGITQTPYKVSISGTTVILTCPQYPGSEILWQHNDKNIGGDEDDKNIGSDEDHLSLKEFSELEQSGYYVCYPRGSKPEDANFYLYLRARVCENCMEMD
T1 sequence (P04234 22-105 limits assumed, stated change not applied, chain 2 of 2): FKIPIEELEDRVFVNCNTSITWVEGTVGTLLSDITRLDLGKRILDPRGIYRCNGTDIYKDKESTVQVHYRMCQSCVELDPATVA
measurement.name: pKd
Quick note: pKd values are minus log10 of concentrations in mol/L.

>>> value("H1H5780P (antibody, human IgG1, V domains shown, H1H: human IgG1 Fc; divalent) VH: EVQLVESGGGLVQPGRSLRLSCAASGFTFDDYAMHWVRQAPGKGLEWVSGISWNGGSKDYADSVKGRFTISRDNTRNSLSLQMNSLRIEDTALYYCAKDKSGYGSFYYGLDVWGQGTTVTVSS VL: EIVLTQSPGTLSLSPGDRATLSCRASQSIRSIYLAWYQQKPGQAPRLLIHGASTRATGIPDRFSGSGSGTDFTLTISRLEPEDFAVYYCQQRVSSPYTFGQGTKLEIK")
7.52
>>> value("H1H5801B (antibody, human IgG1, V domains shown, H1H: human IgG1 Fc; divalent) VH: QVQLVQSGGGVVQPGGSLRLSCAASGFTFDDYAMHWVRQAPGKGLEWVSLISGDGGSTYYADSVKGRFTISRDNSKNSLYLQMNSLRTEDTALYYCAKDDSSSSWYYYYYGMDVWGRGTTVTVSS VL: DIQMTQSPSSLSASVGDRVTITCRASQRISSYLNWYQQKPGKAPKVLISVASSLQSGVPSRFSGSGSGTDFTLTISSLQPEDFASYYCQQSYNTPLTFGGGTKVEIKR")
6.61
>>> value("H1H5756B (antibody, human IgG1, V domains shown, H1H: human IgG1 Fc; divalent) VH: EVQLVESGGGVVQPGRSLRLSCTASGFPFSRYGMHWVRQAPGKGLEWVTFIWYDGSNKYYADSAKGRFTITRDNSKNTVYLQMDSLRADDTAVYYCVRDQAALYYFDSWGQGTLVTVSS VL: DIQMTQSPSSVSASVGDRVTITCRASQGISRWLAWYQQKPGKAPKLLISAASSLQSGVPSRFSGSGSGTDFTLTISGLQPEDFATYYCQKANSFPFTFGPGTKLEIKR")
7.49
>>> value("H1H5758B (antibody, human IgG1, V domains shown, H1H: human IgG1 Fc; divalent) VH: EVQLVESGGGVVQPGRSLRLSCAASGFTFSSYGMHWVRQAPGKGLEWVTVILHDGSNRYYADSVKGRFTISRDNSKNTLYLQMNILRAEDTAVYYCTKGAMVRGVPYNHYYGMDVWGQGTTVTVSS VL: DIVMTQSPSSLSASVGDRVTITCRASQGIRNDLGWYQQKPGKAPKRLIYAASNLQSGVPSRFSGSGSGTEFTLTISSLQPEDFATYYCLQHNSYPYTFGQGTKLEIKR")
6.63

Attention now shifts to the item below.
IN: What pKd value was documented for this binder, H1H5772S (antibody, V domains shown, H1H: human IgG1 Fc; divalent; also called H1H5772P) VH: QVQLVESGGGLVQPGRSLRLSCAASGFSFDDYAMHWVRQAPGQGLEWVSGISWNGGSRDYADSVKGRFTISRDNARNSLFLQMNSLFTEDTALYYCAKDKSGYGSYFYGMDVWGQGTTVTVSS VL: EIVLTQSPGILSLSPGDRATLSCRASQSIRNIYLAWYQQKPGQAPRLLIHGASTRATGIPDRFSGSGSGTDFTLTISRLEPEDFAVYYCQQRVSSPYTFGQGTKLEIK ?
OUT: 7.00
